# Tested on: SK-MEL-28
# assay summary: NCI tumour cell line growth inhibition, 48 h
Calls of active or inactive are those of the source. Rule as the data show it: active = GI50 up to about 1.1 µM and inactive = higher.
Could you please pick one outcome from this set? TRUE for active, FALSE for inactive

Look up the recorded call for FC(F)(F)c1cnc(N/N=C(/c2ccccc2)c2ccccn2)c(Cl)c1 in this test.
FALSE

For CS(=O)(=O)NC12CCC(c3ccccc31)c1ccccc12 , what call appears in the results of this test?
FALSE

Record lookup: outcome of this test for COc1ccc(C2=C(N)c3cc(OC)ccc3C2=O)cc1 ?
FALSE

What did this assay record as the result for CC(N)Cc1ccc(F)cc1 (stereo unspecified) ?
FALSE

State the result this test recorded for COc1cc(C(=O)CBr)c(OC)cc1C .
FALSE

Dear colleague, could you share the recorded outcome for CCOC(=O)NC(C(C(=O)OCC)C(=O)OCC)(C(F)(F)F)C(F)(F)F when you have a moment?
FALSE

What classification did CC(=O)Oc1ccc(CO)cc1OC(C)=O end up with in this test?
FALSE

What outcome does the record of this test show for CC1(C)OC[C@@]2([C@@H]3CC[C@@H](C3)C2(C)C)N1O ?
FALSE

Could you check what this test reported for C=CC/C(C(=O)OC)=C(/C(=O)OC)N(CCC)CCC ?
FALSE

Called result for C=C1N(S(=O)(=O)c2ccc(C)cc2)C(=O)OCC12CCCC2
FALSE

How was CC(C)Nc1n[nH]c(=O)n1C(C)C classified in this test?
FALSE

# fetch the recorded call for C#CCN(N=O)C(=O)NCCCC(NC(C)=O)C(=O)NCc1ccccc1 (stereo unspecified) here
FALSE

Please let me know the test result on file for Oc1ccccc1/C=N/c1ccc(Oc2ccc(Cl)cc2)c(Cl)c1 .
FALSE

Check the results log: what was the call for COc1cc(OC)cc(N2CCC(c3c(N)nc(N)nc3Cl)CC2)c1 ?
FALSE

Hi, do you know how C/C(=N\Nc1nc2ccccc2n1C)c1cnccn1 came out in this test?
TRUE

In this assay, the call recorded for CCC(C)C(NC(=O)C(CCCC[N+](=N)N)NC(=O)C(CCCC[N+](=N)N)NC(=O)c1ccc(OC)cc1)C(=O)NC(CCCC[N+](=N)N)C(=O)N1CCCC1C(=O)NC(CCCCN)C(=O)NC(CC(C)C)C(N)=O (stereo unspecified) was what?
FALSE

Could you check what this test reported for Nc1nccc(Nc2ccc(S(N)(=O)=O)cc2)n1 ?
FALSE

Recorded call for CC(=O)O[C@H]1CC[C@H]2[C@@H]3CCC4=C(C(=O)C=CC4(C)OC(C)=O)[C@H]3CC[C@]12C (stereo partly specified) ?
FALSE

What was the test verdict on CCOC(=O)Cn1c(=O)c2nc(SC)sc2n(-c2ccccc2)c1=O ?
FALSE

Check the results log: what was the call for COC1CC2CCC(C)[C@](O)(O2)C(=O)C(=O)N2CCCCC2C(=O)OC(C(C)CC2CCC(O)C(OC)C2)CC(=O)C(C)C=C(C)C(OC(=O)CN(C)C)C(OC)C(=O)C(C)CC(C)/C=C/C=C/C=C\1C (stereo partly specified) ?
TRUE

Recorded test outcome, item Nc1nc(Cl)cc(NC23CC4CC(CC(C4)C2)C3)n1
FALSE

====

# System: NCI-H460
# assay summary: NCI tumour cell line growth inhibition, 48 h
Active and inactive are the calls of the source. Rule as the data show it: active = GI50 up to about 1.1 µM and inactive = higher.
value kind: GI50

Find the recorded GI50 belonging to CC1(C)CC(=O)c2c(-c3ccc(Cl)cc3)c(C#N)c(=S)n(C3OC(CO)C(O)C(O)C3O)c2C1 (stereo not given) and report it.
30.3 µM (inactive)

Consider the compound O=[N+]([O-])c1cccc(/N=C2\c3ccccc3CN2c2cccc([N+](=O)[O-])c2)c1 and give its measured GI50.
> 100 µM (inactive)

Query (compound): CC(c1ccc(Br)cc1)C(C(=O)O)C(=O)O (stereo not given) ; field requested: GI50
> 100 µM (inactive)

GI50 lookup needed for OC12C3C4CC5C(C4[C@@H]1Br)C2[C@@](O)(c1c(F)c(F)c(F)c(F)c1F)C53 (stereo not given in full) , thanks.
33.7 µM (inactive)

Given the compound CC(=O)Nc1ccc(N2C(=O)CS(=O)(=O)C2c2cccc(Oc3ccccc3)c2)cc1 (stereo not given) , what is its reported GI50?
17.8 µM (inactive)

Sample O=c1[nH]c(Nc2nc3ccccc3[nH]2)nc(O)c1Cc1ccccc1 — what was its GI50?
> 100 µM (inactive)

Entry CC(=O)SC(C[N+](=O)[O-])c1ccc2c(c1)OCO2 (stereo not given) : reported GI50 = ?
11.2 µM (inactive)

Could you tell me which GI50 is on file for C#CCn1ncc2c(SC)ncnc21 ?
> 100 µM (inactive)

Consider the compound COc1ccc(/C(=N/NC(=O)NN)C(c2ccc(OC)cc2)C2(O)CNc3c(Cl)cc(Cl)cc32)cc1 (stereo not given) and give its measured GI50.
> 100 µM (inactive)

For CCOC(=O)c1cc2ncccc2c2ccccc12 , what is its reported GI50?
> 100 µM (inactive)
